System: caspase 3/7 in K562 cells
assay.comment: Apo-ONE Homogeneous Caspase-3/7 Assay in K562 cells
Format: cell-based, human
assay.conditions: compound at 5 × IC50 (staurosporine 1 µM), 18 h, 1% DMSO normalized to 1.0
assay.endpoint: increase in the activity of caspase 3/7

COC(=O)c1c(CBr)oc2cc(C(C)=O)c(O)cc12 [Compound 2d]; about two-fold
COC(=O)c1oc2c(C(C)=O)c(OC)c(OC)cc2c1CBr [Compound 1c]; about two-fold

----------
Tested on: K562 (leukemia) cells
assay.comment: MTT cytotoxicity assay, K562
Type: cell-based, human
assay.conditions: initial screening, 100 μM, 48 h
assay.endpoint: reduction of viability of K562 cells

Please review the following examples before continuing.
COc1cc2c(C)c(Br)oc2c(C(=O)CBr)c1OC; more than 50%
COC(=O)c1c(CBr)oc2cc(C(C)=O)c(OC)cc12; more than 50%
COC(=O)c1c(C)oc2cc(C(O)C(Br)Br)c(OC)cc12 (centres unmarked); more than 50%
COC(=O)c1oc2c(C(C)=O)c(OC)c(OC)cc2c1CBr; more than 50%

Could you now consider this next molecule?
### Prompt Consider the molecule `COC(=O)c1c(CBr)oc2cc(C(C)=O)c(O)cc12` and give its measured reduction of viability of K562 cells.
### Response more than 50%

Entry source: paper PMC6514909
